Exercise: state measured log10 of IC50 for each of the molecules provided.
# TEST_TARGET: human TLR9 (Homo sapiens, UniProt Q9NR96)
# Sequence (Q9NR96 26-1032): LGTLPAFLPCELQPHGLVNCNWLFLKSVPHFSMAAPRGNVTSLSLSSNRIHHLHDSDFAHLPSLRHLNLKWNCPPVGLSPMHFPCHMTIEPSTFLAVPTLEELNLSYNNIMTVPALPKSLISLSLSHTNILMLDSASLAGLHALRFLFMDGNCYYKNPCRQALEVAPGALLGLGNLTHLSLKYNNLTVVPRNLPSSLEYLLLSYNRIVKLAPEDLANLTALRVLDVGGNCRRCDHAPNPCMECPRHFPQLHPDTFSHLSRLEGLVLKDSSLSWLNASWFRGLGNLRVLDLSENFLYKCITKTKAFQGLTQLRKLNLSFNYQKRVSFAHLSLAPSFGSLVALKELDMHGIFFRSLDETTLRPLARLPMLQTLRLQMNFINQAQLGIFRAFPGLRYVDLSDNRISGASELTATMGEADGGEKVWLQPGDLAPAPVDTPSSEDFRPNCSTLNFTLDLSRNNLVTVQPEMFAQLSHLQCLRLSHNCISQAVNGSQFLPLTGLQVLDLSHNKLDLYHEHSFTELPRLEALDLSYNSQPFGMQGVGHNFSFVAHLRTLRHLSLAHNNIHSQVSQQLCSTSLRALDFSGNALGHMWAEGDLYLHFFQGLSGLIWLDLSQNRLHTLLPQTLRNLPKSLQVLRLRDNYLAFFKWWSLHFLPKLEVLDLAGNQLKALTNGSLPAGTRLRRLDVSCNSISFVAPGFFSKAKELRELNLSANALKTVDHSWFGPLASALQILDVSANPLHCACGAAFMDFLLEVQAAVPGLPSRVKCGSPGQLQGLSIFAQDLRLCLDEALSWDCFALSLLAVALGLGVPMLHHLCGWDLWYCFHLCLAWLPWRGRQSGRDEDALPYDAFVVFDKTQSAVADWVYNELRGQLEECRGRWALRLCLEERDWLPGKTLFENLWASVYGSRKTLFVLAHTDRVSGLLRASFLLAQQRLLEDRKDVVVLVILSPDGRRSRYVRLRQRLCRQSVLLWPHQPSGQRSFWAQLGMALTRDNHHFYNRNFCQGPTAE
# ASSAY_PROTOCOL: HEK293-Blue-hTLR-9 cells assay
# COND: HEK293-Blue-hTLR9 cells, SEAP reporter, ODN2006 stimulation, 20 hrs
Note the log scale: values are log10 of IC50 expressed in µM.

Could you please provide reported log10 of IC50 for CN1CCC(NC(=O)C2CN(c3ccc(C#N)c4ncccc34)CC23CC3)CC1 (single isomer, unassigned) [Example 41A] ? Thanks! 0.65

Could you please provide reported log10 of IC50 for N#Cc1ccc(N2CC(C(=O)NC[C@H]3CNCCO3)C3(CC3)C2)c2nccnc12 (single isomer, unassigned) [Example 70B] ? Thanks! 0.45

Could you please provide reported log10 of IC50 for NC1CC(NC(=O)C2CN(c3ccc(C(F)(F)F)c4nccnc34)CC23CC3)C1 (stereo not drawn) [Example 38] ? Thanks! 1.09

Could you please provide reported log10 of IC50 for C[C@H]1CN(c2ccc([N+](=O)[O-])c3ncccc23)C[C@@H]1C(=O)NC1CCN(C)CC1 [Example 27] ? Thanks! 0.65

Could you please provide reported log10 of IC50 for CN1CCC(NC(=O)C2CN(c3ccc(C#N)c4ncccc34)CC2C(F)(F)F)CC1 (stereo not drawn) [Example 18] ? Thanks! 1.03

Could you please provide reported log10 of IC50 for N[C@@H]1C[C@H](NC(=O)C2CN(c3ccc(C(F)(F)F)c4nccnc34)CC23CC3)[C@@H]2C[C@@H]21 (stereo partly drawn) [Example 36] ? Thanks! 1.34

Could you please provide reported log10 of IC50 for Cc1ccc(N2C[C@H](C(=O)NC3CCN(C)CC3)[C@@H](C)C2)c2nccnc12 [Example 33] ? Thanks! 1.48

Could you please provide reported log10 of IC50 for N#Cc1ccc(N2CC(C(=O)NCC3CNCCO3)C3(CC3)C2)c2nccnc12 (stereo not drawn) [Example 13] ? Thanks! 0.32

Could you please provide reported log10 of IC50 for CN1CC(NC(=O)C2CN(c3ccc(C(F)(F)F)c4nccnc34)CC23CC3)C2(CC2)C1 (stereo not drawn) [Example 20] ? Thanks! 1.12

Could you please provide reported log10 of IC50 for C[C@@H]1CN(c2ccc(C#N)c3ncccc23)C[C@H]1C(=O)N1CCC2(CCNC2)C1 (relative stereo) [Example 53] ? Thanks! 0.41

Could you please provide reported log10 of IC50 for O=C(NC1CC2CNCC(C2)C1)C1CN(c2ccc(C(F)(F)F)c3nccnc23)CC12CC2 (stereo not drawn) [Example 15] ? Thanks! 0.86

Could you please provide reported log10 of IC50 for NC1CC(CNC(=O)C2CN(c3ccc(C(F)(F)F)c4nccnc34)CC23CC3)C1 (stereo not drawn) [Example 31] ? Thanks! 0.97

Could you please provide reported log10 of IC50 for O=C(NC1C2CCC1CNC2)C1CN(c2ccc(C(F)(F)F)c3nccnc23)CC12CC2 (stereo not drawn) [Example 12] ? Thanks! 0.00

Could you please provide reported log10 of IC50 for CC(C)[C@@H]1CN(c2ccc(C#N)c3ncccc23)C[C@H]1C(=O)NC1CCN(C)CC1 (relative stereo) [Example 37] ? Thanks! 0.72

Could you please provide reported log10 of IC50 for C[C@H]1CN(c2ccc(C(F)(F)F)c3nccnc23)C[C@@H]1C(=O)NC1CCN(C)CC1 [Example 5] ? Thanks! 1.02

----------
# TEST_TARGET: human TLR9 (Homo sapiens, UniProt Q9NR96)
# ASSAY_PROTOCOL: HEK293-Blue-hTLR-9 cells assay
# COND: HEK293-Blue-hTLR9 cells, SEAP reporter, ODN2006 stimulation, 20 hrs
ENDPOINT: log10(IC50) (log10 of the value in µM)
Note the log scale: values are log10 of IC50 expressed in µM.

Could you please provide reported log10(IC50) for C[C@H]1CN(c2ccc(Cl)c3ncccc23)C[C@@H]1C(=O)NC1CCN(C)CC1 ? Thanks! 0.53

Could you please provide reported log10(IC50) for N[C@H]1CC[C@@H](NC(=O)C2CN(c3ccc(C(F)(F)F)c4nccnc34)CC23CC3)CC1 (stereo partly drawn) ? Thanks! 1.32

Could you please provide reported log10(IC50) for O=C(NC1CC2CCCC(C1)N2)C1CN(c2ccc(C(F)(F)F)c3nccnc23)CC12CC2 (stereo not drawn) ? Thanks! 0.98

Could you please provide reported log10(IC50) for C[C@@H]1CN(c2ccc(C#N)c3ncccc23)C[C@H]1C(=O)N1CCC2(CCNCC2)CC1 (relative stereo) ? Thanks! 0.38

Could you please provide reported log10(IC50) for N[C@H]1CC[C@H](NC(=O)C2CN(c3ccc(C(F)(F)F)c4nccnc34)CC23CC3)CC1 (stereo partly drawn) ? Thanks! 1.44

Could you please provide reported log10(IC50) for C[C@@H]1CN(c2ccc(C(F)(F)F)c3nccnc23)C[C@H]1C(=O)NC1CCN(C)CC1 ? Thanks! 1.14

Could you please provide reported log10(IC50) for O=C(NC1CC2(CCNCC2)C1)C1CN(c2ccc(C(F)(F)F)c3nccnc23)CC12CC2 (stereo not drawn) ? Thanks! 1.22

Could you please provide reported log10(IC50) for N[C@@H]1CCC[C@H](NC(=O)C2CN(c3ccc(C(F)(F)F)c4nccnc34)CC23CC3)C1 (relative stereo) ? Thanks! 1.25

Could you please provide reported log10(IC50) for CN1CCC(NC(=O)[C@@H]2CN(c3ccc(C#N)c4ncccc34)C[C@H]2C2CC2)CC1 (relative stereo) ? Thanks! 0.65

Could you please provide reported log10(IC50) for CN(C)CC1CC(NC(=O)C2CN(c3ccc(C(F)(F)F)c4nccnc34)CC23CC3)C1 (stereo not drawn) ? Thanks! 1.06

Could you please provide reported log10(IC50) for N#Cc1ccc(N2C[C@@H](C(F)(F)F)[C@H](C(=O)N[C@H]3CNC[C@H]3F)C2)c2cccnc12 ? Thanks! 1.36

Could you please provide reported log10(IC50) for CN1CCCC(CNC(=O)C2CN(c3ccc(C#N)c4ncccc34)CC23CC3)C1 (stereo not drawn) ? Thanks! 0.30

Could you please provide reported log10(IC50) for O=C(NC1CC2CCC(C1)N2)C1CN(c2ccc(C(F)(F)F)c3nccnc23)CC12CC2 (stereo not drawn) ? Thanks! 1.02

Could you please provide reported log10(IC50) for CN1CCC(NC(=O)[C@H]2CN(c3ccc(C#N)c4nccnc34)C[C@@H]2C(F)(F)F)CC1 ? Thanks! 0.72

Could you please provide reported log10(IC50) for NC1CC2(C1)CC(NC(=O)C1CN(c3ccc(C(F)(F)F)c4nccnc34)CC13CC3)C2 (stereo not drawn) ? Thanks! 0.91

----------
Exercise: state measured IC50 for each of the compounds provided.
# TEST_TARGET: human TLR8 (Homo sapiens, UniProt Q9NR97)
# Sequence (Q9NR97 27-1041): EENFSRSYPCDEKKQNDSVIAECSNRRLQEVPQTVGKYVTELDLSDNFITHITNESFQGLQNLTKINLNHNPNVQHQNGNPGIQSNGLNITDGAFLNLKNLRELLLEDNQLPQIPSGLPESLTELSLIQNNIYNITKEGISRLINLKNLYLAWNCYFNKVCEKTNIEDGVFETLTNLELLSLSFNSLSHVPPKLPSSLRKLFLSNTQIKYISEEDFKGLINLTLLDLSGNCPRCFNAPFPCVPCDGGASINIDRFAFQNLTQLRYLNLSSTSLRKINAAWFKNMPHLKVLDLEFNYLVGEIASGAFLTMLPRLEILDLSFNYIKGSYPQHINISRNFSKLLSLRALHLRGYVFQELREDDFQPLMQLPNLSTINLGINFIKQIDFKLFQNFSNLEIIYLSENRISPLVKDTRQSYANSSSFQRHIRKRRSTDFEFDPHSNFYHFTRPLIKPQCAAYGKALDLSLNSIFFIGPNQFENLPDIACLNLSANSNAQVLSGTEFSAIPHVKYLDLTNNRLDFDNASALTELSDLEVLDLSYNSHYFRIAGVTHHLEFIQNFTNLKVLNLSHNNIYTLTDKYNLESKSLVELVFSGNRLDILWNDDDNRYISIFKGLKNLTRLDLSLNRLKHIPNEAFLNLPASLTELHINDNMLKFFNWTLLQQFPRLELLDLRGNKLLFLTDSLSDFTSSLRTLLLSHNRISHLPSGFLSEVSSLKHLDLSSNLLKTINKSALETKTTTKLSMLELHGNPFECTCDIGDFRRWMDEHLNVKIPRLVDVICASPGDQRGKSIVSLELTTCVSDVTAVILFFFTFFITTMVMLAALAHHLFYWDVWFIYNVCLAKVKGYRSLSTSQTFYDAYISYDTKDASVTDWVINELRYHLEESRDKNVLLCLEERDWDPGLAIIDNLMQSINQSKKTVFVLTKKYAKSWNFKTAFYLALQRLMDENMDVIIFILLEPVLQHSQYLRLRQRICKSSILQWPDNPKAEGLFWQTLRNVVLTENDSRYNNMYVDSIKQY
# ASSAY_PROTOCOL: HEK293-Blue-hTLR-8 cells assay
# COND: HEK293-Blue-hTLR8 cells, SEAP reporter, R848 stimulation, 20 hrs
# Procedure: HEK293-Blue-hTLR-8 Cells Assay: A stable HEK293-Blue-hTLR-8 cell line was purchased from InvivoGen (Cat. #: hkb-htlr8, San Diego, Calif., USA). […] The cell culture supernatant SEAP reporter activity was determined using QUANTI-Blue™ kit (Cat. #: rep-qb1, Invivogen, San Diego, Ca, USA) at a wavelength of 640 nm, a detection medium that turns purple or blue in the presence of alkaline phosphatase. […]
Answer shape: numeric part, then the unit.

Could you please provide reported IC50 for NC1CC(CNC(=O)C2CN(c3ccc(C(F)(F)F)c4nccnc34)CC23CC3)C1 (stereo not shown) ? Thanks! 167 nM

Could you please provide reported IC50 for CN1CCC(NC(=O)[C@H]2CN(c3ccc(C(F)(F)F)c4nccnc34)C[C@@H]2C(F)(F)F)CC1 ? Thanks! 18 nM

Could you please provide reported IC50 for CN1CCC(NC(=O)[C@H]2CN(c3ccc(C#N)c4ncccc34)C[C@@H]2C(F)(F)F)CC1 ? Thanks! 25 nM

Could you please provide reported IC50 for Cc1ccc(N2C[C@H](C(=O)NC3CCN(C)CC3)[C@@H](C)C2)c2nccnc12 ? Thanks! 75 nM

----------
# TEST_TARGET: human TLR9 (Homo sapiens)
# ASSAY_PROTOCOL: HEK293-Blue-hTLR-9 cells assay
# COND: HEK293-Blue-hTLR9 cells, SEAP reporter, ODN2006 stimulation, 20 hrs
Checkbox rule: IC50 lower than 7 µM = true (1); IC50 not lower than 7 µM = false (0).

Hi there! Is IC50 for CN1CCC(NC(=O)C2CN(c3ccc(C#N)c4nccnc34)CC23CC3)CC1 (single isomer, unassigned) [Example 7B] below 7 µM, do you know? true (1)

Hi there! Is IC50 for CN1CCC(NC(=O)[C@H]2CN(c3ccc(C#N)c4ncccc34)C[C@@H]2C(F)(F)F)CC1 below 7 µM, do you know? false (0)

Hi there! Is IC50 for CN1CCC(NC(=O)[C@@H]2CN(c3ccc(Cl)c4ncccc34)C[C@H]2C(F)(F)F)CC1 (relative stereo) below 7 µM, do you know? false (0)

Hi there! Is IC50 for C[C@@H]1CN(c2ccc(C#N)c3ncccc23)C[C@H]1C(=O)NC1CCN(C)CC1 (relative stereo) below 7 µM, do you know? true (1)

Hi there! Is IC50 for CN1CCC(NC(=O)C2CN(c3ccc(C#N)c4nccnc34)CC23CC3)CC1 (single isomer, unassigned) [Example 7A] below 7 µM, do you know? true (1)

Hi there! Is IC50 for N#Cc1ccc(N2CC(C(=O)NC3CCCNCC3)C(C(F)(F)F)C2)c2cccnc12 (single isomer, unassigned) [Example 30A] below 7 µM, do you know? false (0)

Hi there! Is IC50 for CN1CCC(NC(=O)C2CN(c3ccc(C(F)(F)F)c4nccnc34)CC23CC3)CC1 (centres unmarked) below 7 µM, do you know? true (1)

Hi there! Is IC50 for C[C@H]1CN(c2ccc(C#N)n3nccc23)C[C@@H]1C(=O)NC1CCN(C)CC1 below 7 µM, do you know? false (0)

Hi there! Is IC50 for C[C@@H]1CN(c2ccc(C#N)c3ncccc23)C[C@H]1C(=O)N[C@H]1CNC[C@H]1F below 7 µM, do you know? false (0)

Hi there! Is IC50 for O=C(NC1CC2CNCC2C1)C1CN(c2ccc(C(F)(F)F)c3nccnc23)CC12CC2 (centres unmarked) below 7 µM, do you know? false (0)

Hi there! Is IC50 for CN1CCC(NC(=O)[C@H]2CN(c3ccc(C(F)(F)F)c4nccnc34)C[C@@H]2C(F)(F)F)CC1 below 7 µM, do you know? true (1)

Hi there! Is IC50 for CN1CCC(NC(=O)[C@@H]2CN(c3ccc(C#N)c4ncccc34)C[C@H]2C(F)(F)F)CC1 (relative stereo) below 7 µM, do you know? true (1)

Hi there! Is IC50 for N#Cc1ccc(N2C[C@H](C(=O)NC3CCN(C4CCNCC4)CC3)[C@@H](C(F)(F)F)C2)c2nccnc12 below 7 µM, do you know? true (1)

Hi there! Is IC50 for C[C@@H]1CN(c2ccc(C#N)c3ncccc23)C[C@H]1C(=O)NC1CCCNCC1 (single isomer, unassigned) [Example 52B] below 7 µM, do you know? false (0)

Hi there! Is IC50 for C[C@H]1CN(c2ccc(C#N)c3nccnc23)C[C@@H]1C(=O)NC1CCN(C)CC1 below 7 µM, do you know? true (1)

Hi there! Is IC50 for C[C@@H]1CN(c2ccc(C#N)c3ncccc23)C[C@H]1C(=O)NC1CCCNCC1 (single isomer, unassigned) [Example 52A] below 7 µM, do you know? false (0)

Hi there! Is IC50 for C[C@H]1CN(c2ccc(C#N)c3ncccc23)C[C@@H]1C(=O)NC1CCN(C)CC1 below 7 µM, do you know? true (1)

Hi there! Is IC50 for N#Cc1ccc(N2CC(C(=O)NC[C@@H]3CNCCO3)C3(CC3)C2)c2nccnc12 (single isomer, unassigned) [Example 71B] below 7 µM, do you know? true (1)

Hi there! Is IC50 for O=C(NC1CC2COCC(C1)N2)C1CN(c2ccc(C(F)(F)F)c3nccnc23)CC12CC2 (centres unmarked) below 7 µM, do you know? true (1)

Hi there! Is IC50 for N#Cc1ccc(N2CC(C(=O)NC3CCCNCC3)C(C(F)(F)F)C2)c2cccnc12 (single isomer, unassigned) [Example 30B] below 7 µM, do you know? false (0)

Hi there! Is IC50 for O=C(NC1C2CCCC1CNC2)C1CN(c2ccc(C(F)(F)F)c3nccnc23)CC12CC2 (centres unmarked) below 7 µM, do you know? false (0)

Hi there! Is IC50 for C[C@H]1CN(c2ccc(C#N)c3nccnc23)C[C@@H]1C(=O)NC1CCN(C2CCNCC2)CC1 below 7 µM, do you know? true (1)

Hi there! Is IC50 for N#Cc1ccc(N2CC(C(=O)NC[C@@H]3CNCCO3)C3(CC3)C2)c2nccnc12 (single isomer, unassigned) [Example 71A] below 7 µM, do you know? true (1)
